test system: Vero; assay: Cytotoxicity against Vero cell by MTT assay; format: functional; settings: Chlorocebus sabaeus
MEASURED_ATTRIBUTE: CC50

Look over these answered cases.
Entry `O=c1ccn(COCCO)c(=S)[nH]1` has what CC50?
> 495 µM

Subsequent entry: `Cc1c([N+](=O)[O-])c(=O)[nH]c(=O)n1COCCO`
> 408 µM

Subsequent entry: `O=c1[nH]c(=O)n(COCCO)cc1C(F)(F)F`
> 393 µM

Subsequent entry: `Cc1cc(=O)[nH]c(=O)n1COCCO`
> 500 µM

Subsequent entry: `O=c1[nH]c(=O)n(COCCO)cc1[N+](=O)[O-]`
> 432 µM

Report CC50 for every entry below.
1. O=c1[nH]c(=O)n(COCCO)cc1I
2. O=c1cnn(COCCO)c(=O)[nH]1

["> 320 µM", "> 534 µM"]
